# System: HCV replicon
# PROTOCOL DETAILS: Replicon based assay of HCV replication inhibition (NPT ELISA)
# Type: cell-based, Hepatitis C virus
# RECORDED CONDITIONS: Hepatitis C virus, replicon based assay of HCV replication inhibition; Table IV; read-out: Activity
Record form. Attribute: EC50. Fill in for each entry.

Solved cases (2 shown):
CCOC(=O)/C=C/c1ccc(Nc2nc(-c3cccnc3)cs2)cc1 :: > 10 µM
FC(F)(F)c1cccc(Nc2nc(-c3cccnc3)cs2)c1 :: < 1 µM

Your task in this section: give EC50 for each listed record.
1. COc1ncc(-c2csc(Nc3ccc(OCC4CCCCC4)c(F)c3)n2)cn1
2. Fc1ccc(-c2csc(Nc3ccc(OCCCc4cccnc4)c(C(F)(F)F)c3)n2)cc1
3. Cn1nc(-c2ccccc2)cc1Nc1nc(-c2cccnc2)cs1
4. CCCCCCCCOc1ccc(Nc2nc(-c3cnc(OC)nc3)c(F)s2)cc1C(F)(F)F

-- reply
1. < 1 µM
2. 1 to 10 µM
3. > 10 µM
4. < 1 µM

Respectfully, I request EC50 for each entry included below.
1. Clc1ccc(Oc2ccc(Nc3nc(-c4cccnc4)cs3)cc2)cc1
2. CCCCCCCOc1ccc(Nc2nc(-c3cccnc3)cs2)cc1C(F)(F)F
3. CCN(CCOc1ccc(Nc2nc(-c3cccnc3)cs2)cc1C(F)(F)F)c1ccccc1
4. Cc1cccc2sc(Nc3nc(-c4cccnc4)cs3)nc12
5. CCCCCCCCNc1ccc(-c2nc(-c3csc(Nc4cccnc4)n3)cs2)cc1C(F)(F)F
6. Cc1sc(Nc2ccc(OCCCc3ccccc3)c(F)c2)nc1-c1cccnc1
7. Brc1ccc(Nc2nc(-c3cccnc3)cs2)nc1

-- reply
< 1 µM
< 1 µM
< 1 µM
> 10 µM
< 1 µM
> 10 µM
> 10 µM

Quick batch: EC50 for everything below.
1. CCCCCCCCOc1ccc(Nc2nc(-c3cnc(N)nc3)cs2)cc1C(F)(F)F
2. N#Cc1sccc1-c1csc(Nc2ccc(OCC3CCCCC3)c(F)c2)n1
3. CCCCCCCCOc1ccc(Nc2nc(-c3csc(C)n3)cs2)cc1C(F)(F)F
4. CCCCCCCCOc1ccc(Nc2nc(-c3ccc(OC)nc3)cs2)cc1C(F)(F)F
5. NC(=O)c1ccc(Nc2nc(-c3cccnc3)cs2)cc1

-- reply
1: < 1 µM; 2: < 1 µM; 3: < 1 µM; 4: < 1 µM; 5: > 10 µM

###

# Tested on: HCV replicon
# PROTOCOL DETAILS: Replicon based assay of HCV replication inhibition (NPT ELISA)
# Assay type: cell-based, Hepatitis C virus
# RECORDED CONDITIONS: replicon based assay of HCV replication inhibition; Table II; read-out: Activity
pEC50: −log10 of the molar value.
PROPERTY: pEC50

CCCCCCCCOc1ccc(Nc2nc(-c3ccc(C(=O)N(C)C)nc3)cs2)cn1 :: > 6.00

Shift focus to the following entry.
-- ask What does the data say about its pEC50? Entry: CCCCCCCCOc1ccc(Nc2nc(-c3cccnc3)cs2)cn1
-- reply > 6.00

###

# Tested on: HCV replicon
# PROTOCOL DETAILS: Replicon based assay of HCV replication inhibition (NPT ELISA)
# Format: cell-based, Hepatitis C virus
# RECORDED CONDITIONS: Hepatitis C virus, Huh-7, 72 h, Table III; Huh-7 HCV replicon-containing cells, three days; read-out: Activity
# Protocol: Compounds claimed herein are tested for the ability to inhibit viral replication of the Hepatitis C replicon in cultured cells in which the HCV replicon construct has been incorporated. […] In this assay HCV replicon containing cells are treated with different concentrations of the test compound to ascertain the ability of the test compound to suppress replication of the HCV replicon. […] The NPT level of each sample is measured using a captured ELISA. […]
pEC50: −log10 of the molar value.
PROPERTY: pEC50

Before answering, review these 4 worked examples.
CCCCCOc1ccc(Nc2nc(-c3ccc(C#N)nc3)cs2)cc1F :: > 6.00
FC(F)(F)c1cc(Nc2nc(-c3cccnc3)cs2)ccc1OCC1CCCCC1 :: > 6.00
CCCCCCCCOc1ccc(Nc2nc(-c3cccc4nsnc34)cs2)cc1C(F)(F)F :: > 6.00
CCCCCCCCOc1ccc(Nc2nc3c(s2)CCc2ccncc2-3)cc1 :: > 6.00

-- ask Entry under review: CCCCCCCCOc1ccc(Nc2nc(Cc3ccc(F)cc3)cs2)cc1 . Reported pEC50?
-- reply 5.00 to 6.00

###

# System: HCV replicon
# PROTOCOL DETAILS: Replicon based assay of HCV replication inhibition (NPT ELISA)
# Assay type: cell-based, Hepatitis C virus
# RECORDED CONDITIONS: Hepatitis C virus, Huh-7, 72 h, Table III; Huh-7 HCV replicon-containing cells, three days; read-out: Activity
pEC50: −log10 of the molar value.
Record form. Attribute: pEC50. Fill in for each entry.

Examples with answers:
CCCCCOc1ccc(Nc2nc(Cc3ccc(OC)cc3)cs2)cc1F [compound 642] :: < 5.00
CCCCCCCCOc1ccc(Nc2nc3c(s2)CCc2ncccc2-3)cc1 [compound 595] :: 5.00 to 6.00

Kindly give each listed record's pEC50.
1. CCCCCCCc1ccc(Nc2nc(-c3ccc4c(c3)NC(=O)CO4)cs2)cc1 [compound 560]
2. CCCCCCCCN(C)c1ccc(Nc2nc(-c3ccc(O)c(C(N)=O)c3)cs2)cc1C(F)(F)F [compound 569]

-- reply
> 6.00
> 6.00

###

# Test system: HCV replicon
# PROTOCOL DETAILS: Replicon based assay of HCV replication inhibition (NPT ELISA)
# Assay type: cell-based, Hepatitis C virus
# RECORDED CONDITIONS: Hepatitis C virus, Huh-7, 72 h, Table III; Huh-7 HCV replicon-containing cells, three days; read-out: Activity
# Description: Compounds claimed herein are tested for the ability to inhibit viral replication of the Hepatitis C replicon in cultured cells in which the HCV replicon construct has been incorporated. […] In this assay HCV replicon containing cells are treated with different concentrations of the test compound to ascertain the ability of the test compound to suppress replication of the HCV replicon. […] The NPT level of each sample is measured using a captured ELISA. […]
pEC50: −log10 of the molar value.
Consider the following molecules; for each one, report its pEC50.

Example cases with answers are listed next.
CCCCCCCCOc1ccc(Nc2nc(-c3cncc(C#N)c3)cs2)cc1C(F)(F)F :: > 6.00
CCCCCCCCOc1ccc(Nc2nc(-c3cnccn3)cs2)cc1C(F)(F)F :: > 6.00
CCCCCCCCOc1ccc(Nc2nc(-c3ccc(Cl)s3)cs2)cc1C(F)(F)F :: > 6.00
CCCCCCCc1ccc(Nc2nc(-c3sc(-c4cnccn4)nc3C)cs2)cc1 :: > 6.00

# map each molecule to its pEC50
1. CCCCCCCCN(C)c1ncc(Nc2nc(-c3cccnc3)cs2)cc1C(F)(F)F
2. CCCCCCCCc1ccc(Nc2nc(-c3ccc(O)c(O)c3)cs2)cc1
3. CCCCCN(C)c1ccc(Nc2nc(Cc3ccc(F)c(F)c3)cs2)cc1C(F)(F)F
4. CCCCCCCCOc1ccc(Nc2nc(-c3ccc(F)nc3)cs2)cc1C(F)(F)F

-- reply
1. < 5.00
2. > 6.00
3. < 5.00
4. > 6.00

###

# Tested on: HCV replicon
# PROTOCOL DETAILS: Replicon based assay of HCV replication inhibition (NPT ELISA)
# Assay type: cell-based, Hepatitis C virus
# RECORDED CONDITIONS: Hepatitis C virus, replicon based assay of HCV replication inhibition; Table IV; read-out: Activity
Would you mind telling me the reported EC50 of each entry?

These solved cases illustrate the format of a correct answer.
O=C1CSc2cc(-c3csc(Nc4ccc(OCC5CCCCC5)c(F)c4)n3)ccc2N1 :: 1000 to 10000 nM
CN1Cc2c(Nc3nc(-c4cccnc4)cs3)cccc2C(c2ccccc2)C1 (stereo not drawn) :: > 10000 nM
Cc1cccc(C#CCCOc2ccc(Nc3nc(-c4cccnc4)cs3)cc2C(F)(F)F)c1 :: < 1000 nM

Report EC50 for each item below.
1. FC(F)(F)c1cc(Nc2nc(-c3cnccn3)cs2)ccc1OCCCCc1ccccc1
2. O=C(O)c1ccc(Oc2ccc(Nc3nc(-c4cccnc4)cs3)cc2)cc1

-- reply
1. < 1000 nM
2. < 1000 nM

###

Exercise: state measured pEC50 for each of the compounds provided.
# System: HCV replicon
# PROTOCOL DETAILS: Replicon based assay of HCV replication inhibition (NPT ELISA)
# Format: cell-based, Hepatitis C virus
# RECORDED CONDITIONS: Hepatitis C virus, replicon based assay of HCV replication inhibition; Table IV; read-out: Activity
pEC50: −log10 of the molar value.

Record excerpt, results attached:
COc1ncc(-c2csc(Nc3ccc(OCCC(C)CCCC(C)C)c(C(F)(F)F)c3)n2)cn1 (centres unmarked) :: > 6.00
N#Cc1ccc(-c2csc(Nc3ccc(OCC4CCCCC4)c(C(F)(F)F)c3)n2)o1 :: > 6.00
CCCCCCCCOc1ccc(Nc2nc(-c3ncc(C(=O)OCC)s3)cs2)cc1C(F)(F)F :: > 6.00
CN(C)c1ccc(-c2csc(Nc3ccc(OC4CCCC4)c(C(F)(F)F)c3)n2)cn1 :: 5.00 to 6.00
CCCCCCCCOc1ccc(Nc2nc(-c3ccc(CC(=O)O)s3)cs2)cc1C(F)(F)F :: > 6.00

Batch: pEC50 for all items listed.
1. c1cncc(-c2csc(Nc3ccc4c(c3)OCCO4)n2)c1
2. CCOC(=O)Cc1ccc(-c2csc(Nc3ccc(OCCN(CC)c4ccccc4)c(C(F)(F)F)c3)n2)s1
3. Cc1ccc(CCCCOc2ccc(Nc3nc(-c4cccnc4)cs3)cc2C(F)(F)F)cc1

-- reply
< 5.00
5.00 to 6.00
5.00 to 6.00
